koff reference
Biological target: T1, his-tagged cTfR1 (Acro Biosystems p/n TFR-C524a) (cynomolgus monkey, UniProt H9EXL1 89-760 (rhesus entry))
T1 construct: Bought reagent of the SPR assay
T1 sequence (chain, as listed by the source): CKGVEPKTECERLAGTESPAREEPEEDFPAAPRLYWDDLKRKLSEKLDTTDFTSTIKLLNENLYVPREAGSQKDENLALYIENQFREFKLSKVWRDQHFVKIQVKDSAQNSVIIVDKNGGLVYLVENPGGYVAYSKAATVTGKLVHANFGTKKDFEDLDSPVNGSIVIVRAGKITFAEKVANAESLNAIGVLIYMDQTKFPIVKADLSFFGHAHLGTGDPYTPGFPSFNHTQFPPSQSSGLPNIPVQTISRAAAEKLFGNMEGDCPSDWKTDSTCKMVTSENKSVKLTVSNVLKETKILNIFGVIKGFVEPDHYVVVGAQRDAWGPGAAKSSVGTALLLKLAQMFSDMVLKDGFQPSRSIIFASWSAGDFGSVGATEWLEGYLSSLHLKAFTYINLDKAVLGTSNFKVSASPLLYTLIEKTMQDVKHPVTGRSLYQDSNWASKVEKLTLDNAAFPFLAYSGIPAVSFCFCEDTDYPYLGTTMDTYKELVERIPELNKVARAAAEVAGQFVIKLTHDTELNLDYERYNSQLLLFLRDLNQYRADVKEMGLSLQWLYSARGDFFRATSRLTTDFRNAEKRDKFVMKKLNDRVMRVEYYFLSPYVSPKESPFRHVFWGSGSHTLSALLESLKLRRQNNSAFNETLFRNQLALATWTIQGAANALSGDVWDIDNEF
Assay: SPR, Biacore X100, His-tagged TfR1 captured by anti-His
// units = s⁻¹; emit number, no label

| binder | unit_info | val |
| --- | --- | --- |
| Fab0074 (Fab, V domains shown) VH: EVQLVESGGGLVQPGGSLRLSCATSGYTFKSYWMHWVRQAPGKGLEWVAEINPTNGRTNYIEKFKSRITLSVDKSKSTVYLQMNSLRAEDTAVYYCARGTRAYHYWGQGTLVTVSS VL: DIQLTQSPSSLSASVGDRVTITCRASDGLYSNLAWYQQKPGKAPKLLIYDAKNLASGVPSRFSGSGSGTDYTLTISSLQPEDFATYYCQHFWGTPLTFGQGTKVEIKR | s⁻¹ | 0.0105 |
| Fab0070 (Fab, V domains shown) VH: EVQLVESGGGLVQPGGSLRLSCATSGFTFTSYWMHWVRQAPGKGLEWVAEINPTNGRTNYIEKFKSRITLSVDKSKSTVYLQMNSLRAEDTAVYYCARGTRAYHYWGQGTLVTVSS VL: DIQLTQSPSSLSASVGDRVTITCRASDKLYSNLAWYQQKPGKAPKLLIYDATLLASGVPSRFSGSGSGTDYTLTISSLQPEDFATYYCQHFWGTPLTFGQGTKVEIKR | s⁻¹ | 0.00582 |

# context switch: different binder, same koff
Entry under test: Fab0069 (Fab, V domains shown) VH: EVQLVESGGGLVQPGGSLRLSCATSGYTFTSYWVHWVRQAPGKGLEWVAEINPTNGRSNYIEKFKSRITLSVDKSKSTVYLQMNSLRAEDTAVYYCARGTRAYHYWGQGTLVTVSS VL: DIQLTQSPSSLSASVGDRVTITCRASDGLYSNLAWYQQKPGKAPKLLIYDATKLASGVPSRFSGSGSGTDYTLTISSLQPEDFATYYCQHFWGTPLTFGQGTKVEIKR . Its koff was 0.00375
